Molecular target: T1, EsCas13d, nuclease-dead (Eubacterium siraeum, UniProt B0MS50, R295A;H300A;R849A;H854A)
T1 sequence: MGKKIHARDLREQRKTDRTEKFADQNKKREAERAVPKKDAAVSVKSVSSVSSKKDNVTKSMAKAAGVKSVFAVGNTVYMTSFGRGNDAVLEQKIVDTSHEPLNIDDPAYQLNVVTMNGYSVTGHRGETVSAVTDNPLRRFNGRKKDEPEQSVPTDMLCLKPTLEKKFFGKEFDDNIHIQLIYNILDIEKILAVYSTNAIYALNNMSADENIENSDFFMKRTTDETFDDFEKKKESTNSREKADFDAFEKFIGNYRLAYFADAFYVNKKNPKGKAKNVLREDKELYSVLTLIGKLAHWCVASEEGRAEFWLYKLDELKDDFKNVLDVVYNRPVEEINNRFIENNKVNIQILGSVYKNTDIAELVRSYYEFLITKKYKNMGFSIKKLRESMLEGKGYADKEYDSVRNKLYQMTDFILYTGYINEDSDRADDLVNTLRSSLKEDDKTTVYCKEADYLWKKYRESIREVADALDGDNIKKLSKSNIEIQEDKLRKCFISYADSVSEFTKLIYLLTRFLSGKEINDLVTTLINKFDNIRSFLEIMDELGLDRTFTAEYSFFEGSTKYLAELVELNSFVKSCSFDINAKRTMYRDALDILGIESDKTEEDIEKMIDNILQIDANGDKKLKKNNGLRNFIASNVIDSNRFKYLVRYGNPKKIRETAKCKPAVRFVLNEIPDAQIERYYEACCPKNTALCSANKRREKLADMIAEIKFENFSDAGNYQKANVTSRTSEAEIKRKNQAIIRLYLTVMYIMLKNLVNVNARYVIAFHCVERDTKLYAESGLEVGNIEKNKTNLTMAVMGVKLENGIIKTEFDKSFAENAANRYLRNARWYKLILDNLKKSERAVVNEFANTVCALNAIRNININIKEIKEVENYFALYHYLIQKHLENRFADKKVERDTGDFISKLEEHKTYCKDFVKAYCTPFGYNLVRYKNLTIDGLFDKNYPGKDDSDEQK
Test: crRNA (strand 1, pre-loaded); Mg2+; 40 mM Tris-HCl pH 7.5, 150 mM NaCl, 6 mM MgCl2, 1 mM DTT, 0.1% Tween-20, 0.2 mg/ml BSA; 25 C; 10 min per concentration, then washed
Conditions: tags: His6-TwinStrep-SUMO cleaved; N-terminal SNAP kept (SNAP-Surface 488); label: 3' end held by stalled T7 RNA polymerase
pKd by entry:
Value format note: pKd is -log10 of concentration (mol/L); just state the number.

binder	pKd
target 1 U8A,C21U (mixed) RNA 1: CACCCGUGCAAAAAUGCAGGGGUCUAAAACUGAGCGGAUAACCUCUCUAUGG RNA 2: GGGAAUGGAUCCACAUCUACGAAUUCGUACUAUAGAGAGGUUAACCGCUCACCGAGAUCGGAAGAGCACACGU	8.04
target 1 MT 5'PFS ACU 3'PFS AUA (mixed) RNA 1: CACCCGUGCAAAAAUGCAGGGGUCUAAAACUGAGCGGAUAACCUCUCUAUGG RNA 2: GGGAAUGGAUCCACAUCUACGAAUUCACUCCAUAGAGAGGUUAUCCGCUCAAUAAGAUCGGAAGAGCACACGU	7.17
target 1 C4U,G12C (mixed) RNA 1: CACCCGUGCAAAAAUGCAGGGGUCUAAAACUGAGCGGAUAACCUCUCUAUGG RNA 2: GGGAAUGGAUCCACAUCUACGAAUUCGUACCAUAGAGAGCUUAUCCGUUCACCGAGAUCGGAAGAGCACACGU	7.65

Ask: What does the data say about its pKd? Entry: target 2 MT 5'PFS AGA 3'PFS UUC (mixed) RNA 1: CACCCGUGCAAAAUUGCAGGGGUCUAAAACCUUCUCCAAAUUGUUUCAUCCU RNA 2: GGGAAUGGAUCCACAUCUACGAAUUCAGAAGGAUGAAACAAUUUGGAGAAGUUCAGAUCGGAAGAGCACACGU
Result: 7.74
